test system: Hepatotoxicity; assay: FDA HLAED, gamma-glutamyl transferase (GGT) increase; conditions: human
value-type: GGT Increase - Number of Reports

Sample records with GGT Increase - Number of Reports:
structure: COc1cc([C@@H]2c3cc4c(cc3[C@H](O)[C@H]3COC(=O)[C@H]23)OCO4)cc(OC)c1OC
GGT Increase - Number of Reports: < 4
--
structure: O=c1[nH]c(=O)n([C@H]2C[C@H](O)[C@@H](CO)O2)cc1C(F)(F)F
GGT Increase - Number of Reports: < 4
--
structure: CO/N=C(\C(=O)N[C@@H]1C(=O)N2C(C(=O)O)=C(COC(C)=O)CS[C@H]12)c1csc(N)n1
GGT Increase - Number of Reports: < 4
--
structure: Nc1nc2c(ncn2COCCO)c(=O)[nH]1
GGT Increase - Number of Reports: < 4
--
structure: Nc1cc(Cl)c(N=C2NCCN2)c(Cl)c1
GGT Increase - Number of Reports: < 4
--
structure: Cc1nnc2n1-c1ccc(Cl)cc1C(c1ccccc1)=NC2
GGT Increase - Number of Reports: < 4

// fetch GGT Increase - Number of Reports given entry "CO/N=C(\C(=O)N[C@@H]1C(=O)N2C(C(=O)O)=C(CSc3nc(=O)c(=O)[nH]n3C)CS[C@H]12)c1csc(N)n1"
>= 4

State its GGT Increase - Number of Reports: "O=c1n(CCCN2CCN(c3cccc(Cl)c3)CC2)nc2ccccn12"
< 4
